- TARGET: Melanocortin receptor 5 (Homo sapiens, UniProt P33032)
- Sequence (P33032 whole entry): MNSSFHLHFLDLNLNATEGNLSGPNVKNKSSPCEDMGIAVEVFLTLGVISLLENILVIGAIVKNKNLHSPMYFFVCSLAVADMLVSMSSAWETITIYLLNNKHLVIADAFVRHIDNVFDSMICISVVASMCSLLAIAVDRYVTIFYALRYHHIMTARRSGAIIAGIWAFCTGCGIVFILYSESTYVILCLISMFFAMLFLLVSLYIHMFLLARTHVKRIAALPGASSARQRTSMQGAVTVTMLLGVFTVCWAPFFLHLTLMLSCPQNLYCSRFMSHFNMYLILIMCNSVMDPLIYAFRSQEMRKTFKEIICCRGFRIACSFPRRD
- ASSAY PROTOCOL: Displacement of [125I]-NDP-alpha-MSH from human MC5R expressed in HEK293 cells at 10 uM after 40 mins by gamma counting method
- Format: cell-based
Where a SMILES comes first, the peptide text is derived from it.
Measured inhibition at 10 µM values are reported for all entries that follow.
State just the number; it will be interpreted in %.

Record excerpt, results attached:
>  <MOLECULE>
CCCC[C@H](NC(=O)[C@@H](NC(=O)[C@@H](N)Cc1ccc(O)cc1)C(C)C)C(=O)NCC(=O)N[C@@H](Cc1c[nH]cn1)C(=O)N[C@H](Cc1ccc2ccccc2c1)C(=O)N[C@@H](CCCN=C(N)N)C(=O)NC(Cc1c[nH]c2ccccc12)C(=O)N[C@@H](CC(=O)O)C(=O)N[C@@H](CCCN=C(N)N)C(=O)N[C@@H](Cc1ccccc1)C(=O)NCC(N)=O (stereo in doubt)

>  <inhibition at 10 µM / %>
100

$$$$
>  <MOLECULE>
CC(C)C[C@H](NC(=O)[C@H](Cc1ccccc1)NC(=O)[C@@H]1CCCN1C(=O)CNC(=O)[C@H](CC(C)C)NC(=O)[C@@H](NC(=O)[C@@H](N)Cc1ccc(O)cc1)C(C)C)C(=O)N[C@@H](Cc1c[nH]c2ccccc12)C(=O)N[C@@H](CC(=O)O)C(=O)N[C@@H](CCCNC(=N)N)C(=O)N[C@@H](Cc1ccccc1)C(=O)NCC(N)=O (H-YVLGPFLWDRFG-NH2)

>  <inhibition at 10 µM / %>
32

$$$$
>  <MOLECULE>
CC(C)C[C@H](NC(=O)[C@H](Cc1ccccc1)NC(=O)[C@H](Cc1cnc[nH]1)NC(=O)CNC(=O)[C@H](CC(C)C)NC(=O)[C@@H](NC(=O)[C@@H](N)Cc1ccc(O)cc1)C(C)C)C(=O)N[C@@H](Cc1ccccc1)C(=O)N[C@@H](CC(=O)O)C(=O)N[C@@H](CCCNC(=N)N)C(=O)N[C@@H](Cc1ccccc1)C(=O)NCC(N)=O (H-YVLGHFLFDRFG-NH2)

>  <inhibition at 10 µM / %>
0

$$$$

Qu. For the molecule CC(C)C[C@H](NC(=O)[C@H](Cc1ccccc1)NC(=O)[C@H](Cc1cnc[nH]1)NC(=O)CNC(=O)[C@H](CC(C)C)NC(=O)[C@@H](NC(=O)[C@@H](N)Cc1ccc(O)cc1)C(C)C)C(=O)N[C@@H](Cc1c[nH]c2ccccc12)C(=O)N[C@@H](CC(=O)O)C(=O)N[C@@H](CCCNC(=N)N)C(=O)N[C@@H](Cc1ccccc1)C(=O)NCC(N)=O (H-YVLGHFLWDRFG-NH2) , what inhibition at 10 µM is on record?
Ans. 0

###

- TARGET: Melanocortin receptor 4 (Homo sapiens)
- Sequence (P32245 whole entry): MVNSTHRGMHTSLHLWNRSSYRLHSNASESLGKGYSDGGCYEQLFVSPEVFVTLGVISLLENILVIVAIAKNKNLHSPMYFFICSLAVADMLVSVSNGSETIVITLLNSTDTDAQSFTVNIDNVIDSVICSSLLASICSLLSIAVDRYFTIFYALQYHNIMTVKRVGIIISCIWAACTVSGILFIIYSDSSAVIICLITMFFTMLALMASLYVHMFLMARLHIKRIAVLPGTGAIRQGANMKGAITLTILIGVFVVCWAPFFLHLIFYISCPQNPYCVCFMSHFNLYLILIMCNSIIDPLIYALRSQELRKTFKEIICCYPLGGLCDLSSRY
- ASSAY PROTOCOL: Displacement of [125I]-NDP-alpha-MSH from human MC4R expressed in HEK293 cells at 10 uM after 40 mins by gamma counting method
- Format: cell-based
Where a SMILES comes first, the peptide text is derived from it.
MEASURED ENDPOINT: inhibition at 10 µM (%)
State just the number; it will be interpreted in %.

Qu. For the compound CC(C)C[C@H](NC(=O)[C@@H](NC(=O)[C@@H](N)Cc1ccc(O)cc1)C(C)C)C(=O)NCC(=O)N1CCC[C@H]1C(=O)N[C@@H](Cc1ccccc1)C(=O)N[C@@H](CCCNC(=N)N)C(=O)N[C@@H](Cc1ccccc1)C(=O)N[C@@H](CC(=O)O)C(=O)N[C@@H](CCCNC(=N)N)C(=O)N[C@@H](Cc1ccccc1)C(=O)NCC(N)=O (H-YVLGPFRFDRFG-NH2) , what inhibition at 10 µM is on record?
Ans. 0

###

Measured Emax at 10 µM values are reported for all entries that follow.
- TARGET: Melanocortin receptor 5 (Homo sapiens)
- ASSAY PROTOCOL: Agonist activity at human MC5R expressed in HEK293 cells assessed as induction of intracellular cAMP accumulation at 10 uM after 3 mins relative to MT-2
- Format: cell-based
- CONDITIONS USED: 0.05 h, read-out: %max
Where a SMILES comes first, the peptide text is derived from it.
State just the number; it will be interpreted in %.

>  <COMPOUND>
CC(C)C[C@H](NC(=O)[C@@H](NC(=O)[C@@H](N)Cc1ccc(O)cc1)C(C)C)C(=O)NCC(=O)N[C@@H](Cc1cnc[nH]1)C(=O)N[C@@H](Cc1ccccc1)C(=O)N[C@@H](CCCNC(=N)N)C(=O)N[C@@H](Cc1c[nH]c2ccccc12)C(=O)N[C@@H](CC(=O)O)C(=O)N[C@@H](CCCNC(=N)N)C(=O)N[C@@H](Cc1ccccc1)C(=O)NCC(N)=O

>  <UNIT SYMBOL>
%

>  <Emax at 10 µM>
0

$$$$
>  <COMPOUND>
CC(C)C[C@H](NC(=O)[C@H](Cc1ccccc1)NC(=O)[C@@H]1CCCN1C(=O)CNC(=O)[C@H](CC(C)C)NC(=O)[C@@H](NC(=O)[C@@H](N)Cc1ccc(O)cc1)C(C)C)C(=O)N[C@@H](Cc1ccccc1)C(=O)N[C@@H](CC(=O)O)C(=O)N[C@@H](CCCNC(=N)N)C(=O)N[C@@H](Cc1ccccc1)C(=O)NCC(N)=O (H-YVLGPFLFDRFG-NH2)

>  <UNIT SYMBOL>
%

>  <Emax at 10 µM>
0

$$$$

In the following, a different compound is considered.
Qu. Test system Melanocortin receptor 5 (Homo sapiens); read-out Emax at 10 µM; what value for CC(C)C[C@H](NC(=O)[C@H](Cc1ccccc1)NC(=O)[C@@H]1CCCN1C(=O)CNC(=O)[C@H](CC(C)C)NC(=O)[C@@H](NC(=O)[C@@H](N)Cc1ccc(O)cc1)C(C)C)C(=O)N[C@@H](Cc1c[nH]c2ccccc12)C(=O)N[C@@H](CC(=O)O)C(=O)N[C@@H](CCCNC(=N)N)C(=O)N[C@@H](Cc1ccccc1)C(=O)NCC(N)=O (H-YVLGPFLWDRFG-NH2) ?
Ans. 0

###

Measured Emax at 10 µM values are reported for all entries that follow.
- TARGET: Melanocortin receptor 5 (Homo sapiens)
- ASSAY PROTOCOL: Agonist activity at human MC5R expressed in HEK293 cells assessed as induction of intracellular cAMP accumulation at 10 uM after 3 mins relative to MT-2
- Type: cell-based
- CONDITIONS USED: 0.05 h, read-out: %max
Where a SMILES comes first, the peptide text is derived from it.
State just the number; it will be interpreted in %.

>  <COMPOUND>
CC(C)C[C@H](NC(=O)[C@@H](NC(=O)[C@@H](N)Cc1ccc(O)cc1)C(C)C)C(=O)NCC(=O)N1CCC[C@H]1C(=O)N[C@@H](Cc1ccccc1)C(=O)N[C@@H](CCCNC(=N)N)C(=O)N[C@@H](Cc1ccccc1)C(=O)N[C@@H](CC(=O)O)C(=O)N[C@@H](CCCNC(=N)N)C(=O)N[C@@H](Cc1ccccc1)C(=O)NCC(N)=O (H-YVLGPFRFDRFG-NH2)

>  <ENDPOINT RESULT>
0

$$$$

In the following, a different compound is considered.
Qu. For the compound CCCC[C@H](NC(=O)[C@@H](NC(=O)[C@@H](N)Cc1ccc(O)cc1)C(C)C)C(=O)NCC(=O)N[C@@H](Cc1c[nH]cn1)C(=O)N[C@H](Cc1ccc2ccccc2c1)C(=O)N[C@@H](CCCN=C(N)N)C(=O)NC(Cc1c[nH]c2ccccc12)C(=O)N[C@@H](CC(=O)O)C(=O)N[C@@H](CCCN=C(N)N)C(=O)N[C@@H](Cc1ccccc1)C(=O)NCC(N)=O (stereo in doubt) , what Emax at 10 µM is on record?
Ans. 6
